Target or test system: SMOX (Homo sapiens)
Construct: using 0.3 µg/mL of purified SMOX enzyme and 2 mM of spermine substrate
Protocol description: Mechanism of inhibition and enzyme kinetics (Lineweaver–Burk, global fit)
Assay type: biochemical
Condition label: global fit for competitive inhibition; inhibitor 0, 0.1, 1 µM
Measured quantity: pKi
Answers are plain numbers, as −log10 of the molar value.

> print(dat)
                                   compound  recorded.result
1  N=C(N)NCCCNCC(O)c1cc(O)ccc1O (centres unmarked)             6.34

Could you now consider this next compound?
Entry under test: `Cc1cc([C@H](O)CNCCCNC(=N)N)cc(C)c1O` . Its pKi was 5.80

====

Target or test system: SMOX (Homo sapiens, UniProt Q9NWM0)
Construct: using 0.3 µg/mL of purified SMOX enzyme and 2 mM of spermine substrate
Sequence (Q9NWM0 whole entry): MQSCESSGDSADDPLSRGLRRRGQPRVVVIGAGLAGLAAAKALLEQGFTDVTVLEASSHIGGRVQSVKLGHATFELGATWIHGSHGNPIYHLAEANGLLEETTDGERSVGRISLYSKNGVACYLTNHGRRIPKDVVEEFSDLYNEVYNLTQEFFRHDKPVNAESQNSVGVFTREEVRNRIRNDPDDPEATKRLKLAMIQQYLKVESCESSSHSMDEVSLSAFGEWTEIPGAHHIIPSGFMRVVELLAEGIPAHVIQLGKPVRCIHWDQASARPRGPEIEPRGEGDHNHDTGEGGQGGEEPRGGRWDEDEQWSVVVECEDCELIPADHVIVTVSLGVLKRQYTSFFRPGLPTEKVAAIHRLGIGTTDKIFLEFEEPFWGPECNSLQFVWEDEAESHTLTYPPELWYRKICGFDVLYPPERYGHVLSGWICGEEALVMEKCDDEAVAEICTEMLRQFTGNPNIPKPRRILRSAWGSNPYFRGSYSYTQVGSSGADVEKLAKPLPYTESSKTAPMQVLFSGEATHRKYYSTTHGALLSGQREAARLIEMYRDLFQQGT
Protocol description: SMOX enzyme activity, HRP-luminol chemiluminescence assay
Assay type: biochemical
Condition label: AUC over 60 s, 2 mM spermine, pH 8
Can you tell me pIC50 for the items I'm about to list?
Numbers only, as −log10 of the molar value.

Worked cases, pIC50 given:
> print(dat)
                                   compound                target.or.test.system  measured.quantity  recorded.result
1  N=C(N)NCCCNCC(O)c1cc(O)ccc1O (stereo not drawn) [Compound 7]  SMOX (Homo sapiens, UniProt Q9NWM0)              pIC50             6.64
2  N=C(N)NCCCCNCC(O)c1cc(O)cc(O)c1 (stereo not drawn) [Compound 3]  SMOX (Homo sapiens, UniProt Q9NWM0)              pIC50             5.22
3  N=C(N)NCCCNCC(O)c1cc(O)cc(O)c1 (stereo not drawn) [Compound 2]  SMOX (Homo sapiens, UniProt Q9NWM0)              pIC50             5.08
4  N=C(N)NCCNCC(O)c1ccc(O)c(O)c1 (stereo not drawn) [Compound 4]  SMOX (Homo sapiens, UniProt Q9NWM0)              pIC50             6.64
5  N=C(N)NCCCNCC(O)c1ccc(O)c(O)c1 (stereo not drawn) [Compound 5]  SMOX (Homo sapiens, UniProt Q9NWM0)              pIC50             6.33

Next compound, please.
Item Cc1cc([C@H](O)CNCCCNC(=N)N)cc(C)c1O [Compound 6] was tested on SMOX (Homo sapiens, UniProt Q9NWM0); the reported pIC50 is 6.27

====

Target or test system: recombinant human MAO-A (Homo sapiens)
Construct: purchased Sigma-Aldrich M7316-1VL
Sequence (P21397 whole entry): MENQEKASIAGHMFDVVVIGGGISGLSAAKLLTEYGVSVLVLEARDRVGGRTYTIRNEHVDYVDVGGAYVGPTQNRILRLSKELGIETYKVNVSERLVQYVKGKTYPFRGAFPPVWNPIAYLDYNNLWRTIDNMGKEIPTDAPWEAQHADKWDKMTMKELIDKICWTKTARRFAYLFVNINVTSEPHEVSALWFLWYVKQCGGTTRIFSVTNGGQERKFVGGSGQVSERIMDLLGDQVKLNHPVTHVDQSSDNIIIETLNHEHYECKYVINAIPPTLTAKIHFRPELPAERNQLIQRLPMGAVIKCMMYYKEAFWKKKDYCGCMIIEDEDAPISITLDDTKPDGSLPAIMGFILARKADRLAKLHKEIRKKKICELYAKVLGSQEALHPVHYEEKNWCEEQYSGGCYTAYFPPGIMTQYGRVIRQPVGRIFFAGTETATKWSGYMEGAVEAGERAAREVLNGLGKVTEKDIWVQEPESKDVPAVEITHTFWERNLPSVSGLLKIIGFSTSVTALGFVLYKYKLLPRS
Protocol description: MAO-Glo assay, MAO-A
Format: biochemical
Condition label: read-out: % Inhibition at 20 μM ± SD, MAO-A
Protocol: To determine selectivity, the compounds were tested for activity against the related FAD-dependent amine oxidase enzymes LSD1, MAO-A, and MAO-B. LSD1 activity was assessed using a commercially available assay kit (#700120, Cayman Chemical, Ann Arbor, MI, USA), in which the enzyme activity was determined by the horseradish peroxidase-catalyzed oxidation of 10-acetyl-3,7-dihydroxyphenoxazine to the highly fluorescent resorufin in response to H2O2 production. […]
Assign inhibition at 20 µM to each entry below.
One number for each entry, in %.

Record excerpt, results attached:
> print(dat)
                                   compound                   target.or.test.system    measured.quantity  recorded.result
1  N=C(N)NCCNCC(O)c1ccc(O)c(O)c1 (stereo not drawn)  recombinant human MAO-A (Homo sapiens)  inhibition at 20 µM             15.5
2       Cc1cc([C@H](O)CNCCCNC(=N)N)cc(C)c1O  recombinant human MAO-A (Homo sapiens)  inhibition at 20 µM               -6
3  N=C(N)NCCCNCC(O)c1cc(O)cc(O)c1 (stereo not drawn)  recombinant human MAO-A (Homo sapiens)  inhibition at 20 µM             -5.5
4  N=C(N)NCCCNCC(O)c1cc(O)ccc1O (stereo not drawn)  recombinant human MAO-A (Homo sapiens)  inhibition at 20 µM               45
5  N=C(N)NCCCNCC(O)c1ccc(O)c(O)c1 (stereo not drawn)  recombinant human MAO-A (Homo sapiens)  inhibition at 20 µM              7.3

Here's the next entry for you.
The value of inhibition at 20 µM measured for the compound N=C(N)NCCCCNCC(O)c1cc(O)cc(O)c1 (stereo not drawn) turned out to be -13.7

Where these numbers come from: paper PMC9504029
